Data provenance: ChEMBL document CHEMBL3046506

System: Pyricularia oryzae
Assay: Antifungal activity against wild type Magnaporthe oryzae Hoku-1 in rice seedlings assessed as preventive value of rice blast at 5 ug/ml foliar spray at 26 degC by pot test
Type: functional
quantity.kind: Activity

Below are worked cases with known answers.
[
  {
    "compound": "CC1C(Cl)(Cl)C1(C)C(=O)NCCc1csc(Cl)c1 (configuration not stated)",
    "quantity.kind": "Activity",
    "recorded.result": "40%"
  },
  {
    "compound": "CCC1(C(=O)NCCc2ccc(Cl)cc2)C(C)C1(Cl)Cl (configuration not stated)",
    "quantity.kind": "Activity",
    "recorded.result": "40%"
  },
  {
    "compound": "CCC1(C(=O)NC(C)Cc2ccc(Cl)cc2)C(C)C1(Cl)Cl (configuration not stated)",
    "quantity.kind": "Activity",
    "recorded.result": "<40%"
  },
  {
    "compound": "CC(C)(C)C(Cl)C(=O)NCCc1csc(Cl)c1 (configuration not stated)",
    "quantity.kind": "Activity",
    "recorded.result": "40%"
  },
  {
    "compound": "CCC(C)NC(=O)C1(CC)C(C)C1(Cl)Cl (configuration not stated)",
    "quantity.kind": "Activity",
    "recorded.result": "<40%"
  },
  {
    "compound": "CC1(C)C(Cl)(Cl)C1(C)C(=O)NCCc1csc(Cl)c1 (configuration not stated)",
    "quantity.kind": "Activity",
    "recorded.result": "40%"
  }
]

input: Please supply the value of reported Activity for the item CCC1(C(=O)NC(C)c2csc(Cl)c2)C(C)C1(Cl)Cl (configuration not stated)
output: <=40%

input: Please supply the value of reported Activity for the item CCC(NC(=O)C1(CC)C(C)C1(Cl)Cl)c1ccc(Cl)cc1 (configuration not stated)
output: <=40%

input: Please supply the value of reported Activity for the item CCC1(C(=O)NC(C)c2cc(Cl)c(Cl)s2)C(C)C1(Cl)Cl (configuration not stated)
output: 40%

input: Please supply the value of reported Activity for the item CCC1(C(=O)NCCc2ccc(F)cc2F)C(C)C1(Cl)Cl (configuration not stated)
output: 40%

input: Please supply the value of reported Activity for the item CCC1(C(=O)NCCc2cccc(Cl)c2)C(C)C1(Cl)Cl (configuration not stated)
output: 40%

input: Please supply the value of reported Activity for the item CCC1(C(=O)NCC(C)c2ccc(Cl)cc2)C(C)C1(Cl)Cl (configuration not stated)
output: 40%

----------
System: Pyricularia oryzae
Test: Antifungal activity against wild type Magnaporthe oryzae Hoku-1 in rice seedlings assessed as preventive value of rice blast at 5 ug/ml foliar spray at 26 degC by pot test
Assay type: functional
quantity.kind: Activity

Below are worked cases with known answers.
[
  {
    "compound": "CCC1(C(=O)NCCc2cc(Cl)c(Cl)s2)C(C)C1(Cl)Cl (stereo unspecified)",
    "Activity": "<=40%"
  },
  {
    "compound": "CCC1(C(=O)NC(C)C2CCC2)C(C)C1(Cl)Cl (stereo unspecified)",
    "Activity": "<40%"
  },
  {
    "compound": "CCC1(C(=O)NCCc2ccc(Br)cc2)C(C)C1(Cl)Cl (stereo unspecified)",
    "Activity": "<=40%"
  },
  {
    "compound": "CCC1(C(=O)NCCc2cc(Cl)cs2)C(C)C1(Cl)Cl (stereo unspecified)",
    "Activity": "40%"
  }
]

input: Please supply the value of reported Activity for the item CCC1(C(=O)NCCc2ccc(Cl)s2)C(C)C1(Cl)Cl (stereo unspecified)
output: 40%

input: Please supply the value of reported Activity for the item CC[C@@]1(C(=O)N[C@H](C)c2ccc(Cl)cc2)[C@@H](C)C1(Cl)Cl (mixture of isomers) [CARPROPAMIDE]
output: >90%

input: Please supply the value of reported Activity for the item CCC1(C(=O)NCCc2csc(Br)c2)C(C)C1(Cl)Cl (stereo unspecified)
output: 40%

input: Please supply the value of reported Activity for the item CCC1(C(=O)NCCc2ccc(C)cc2)C(C)C1(Cl)Cl (stereo unspecified)
output: <40%

input: Please supply the value of reported Activity for the item CCC1(C(=O)NCc2ccc(Cl)cc2)C(C)C1(Cl)Cl (stereo unspecified)
output: <=40%

input: Please supply the value of reported Activity for the item CCC1(C(=O)NCCc2csc(Cl)c2)C(C)C1(Cl)Cl (stereo unspecified)
output: 65%

input: Please supply the value of reported Activity for the item CCC1(C(=O)NC(C)C)C(C)C1(Cl)Cl (stereo unspecified)
output: <40%
